Source of measurements: ChEMBL document CHEMBL2439995

test-method-notes: Binding affinity to biotinylated c-KIT1 G-quadruplex DNA (unknown origin) by surface plasmon resonance method
pKd: −log10 of the molar value.
parameter: pKd

chemical-string	pKd
CN1CCN(c2cc3nc(/C=C/c4ccc(C(=O)NCCN5CCCC5)cc4)n(-c4ccccc4)c(=O)c3cc2F)CC1	4.80

[A] CCN(CC)CCNC(=O)c1ccc(/C=C/c2nc3cc(N4CCN(C)CC4)c(F)cc3c(=O)n2-c2ccccc2)cc1
[B] CCN(CC)CCC(=O)Nc1ccc(/C=C/c2nc3cc(N4CCN(C)CC4)c(F)cc3c(=O)n2-c2ccccc2)cc1
Hi, I'm comparing two records. Which one has the lower pKd, A or B ? Refer to your chosen item by its label in the answer. A
(A: 5.86, B: 6.21)

[I] CN1CCN(c2cc3nc(/C=C/c4ccc(NC(=O)CCN5CCCC5)cc4)n(-c4ccccc4)c(=O)c3cc2F)CC1
[II] CN(C)CCNC(=O)c1ccc(/C=C/c2nc3cc(N4CCN(C)CC4)c(F)cc3c(=O)n2-c2ccccc2)cc1
When their pKd values are compared, which is larger, I or II ? Answer with the label corresponding to your selection. II

[1] CN1CCN(c2cc3nc(/C=C/c4ccc(NC(=O)CCN5CCCCC5)cc4)n(-c4ccccc4)c(=O)c3cc2F)CC1
[2] CN1CCN(c2cc3nc(/C=C/c4ccc(C(=O)NCCCN5CCCC5)cc4)n(-c4ccccc4)c(=O)c3cc2F)CC1
Could you point out whether the larger pKd belongs to 1 or to 2 ? Selection: enter the item's label. 1

====

System: HGC-27
test-method-notes: Cytotoxicity against HGC27 cells assessed as cell viability after 48 hrs by MTT assay
Format: functional, cell-based
condition: Homo sapiens, HGC-27, 48 h
parameter: IC50 (µM)
Quick reminder: number only, in µM, skip the unit.

Below, 5 compounds whose answers are already recorded.
chemical-string	IC50 [µM]
CN1CCN(c2cc3nc(/C=C/c4ccc(NC(=O)CCN5CCCCC5)cc4)n(-c4ccccc4)c(=O)c3cc2F)CC1	8.2
CN1CCN(c2cc3nc(/C=C/c4ccc(C(=O)NCCCN5CCCC5)cc4)n(-c4ccccc4)c(=O)c3cc2F)CC1	12.3
CN(C)CCNC(=O)c1ccc(/C=C/c2nc3cc(N4CCN(C)CC4)c(F)cc3c(=O)n2-c2ccccc2)cc1	21.2
CCN(CC)CC(=O)Nc1ccc(/C=C/c2nc3cc(N4CCN(C)CC4)c(F)cc3c(=O)n2-c2ccccc2)cc1	18.4
CN1CCN(c2cc3nc(/C=C/c4ccc(C(=O)NCCN5CCCC5)cc4)n(-c4ccccc4)c(=O)c3cc2F)CC1	17.2

Give me measured IC50, please, for this compound: Cc1ccc(NC(=O)c2ccc(CN3CCN(C)CC3)cc2)cc1Nc1nccc(-c2cccnc2)n1 3.8

Give a short answer stating reported IC50 for CN1CCN(c2cc3nc(/C=C/c4ccc(NC(=O)CCN5CCCC5)cc4)n(-c4ccccc4)c(=O)c3cc2F)CC1 . 13.4

Give the value of IC50 reported for the following: CCN(CC)CCC(=O)Nc1ccc(/C=C/c2nc3cc(N4CCN(C)CC4)c(F)cc3c(=O)n2-c2ccccc2)cc1 6.8

====

test-method-notes: Binding affinity to F-c-KIT1-T G-quadruplex DNA (unknown origin) assessed as change in melting temperature at 5 uM by FRET assay
parameter: ΔTm (°C)

Some molecules with known ΔTm results, for comparison:
chemical-string	unit-name	ΔTm
CCN(CC)CC(=O)Nc1ccc(/C=C/c2nc3cc(N4CCN(C)CC4)c(F)cc3c(=O)n2-c2ccccc2)cc1	°C	5.5
CCN(CC)CCC(=O)Nc1ccc(/C=C/c2nc3cc(N4CCN(C)CC4)c(F)cc3c(=O)n2-c2ccccc2)cc1	°C	11.1
CN1CCN(c2cc3nc(/C=C/c4ccc(C(=O)NCCCN5CCCC5)cc4)n(-c4ccccc4)c(=O)c3cc2F)CC1	°C	15.9
CN1CCN(c2cc3nc(/C=C/c4ccc(NC(=O)CCN5CCCC5)cc4)n(-c4ccccc4)c(=O)c3cc2F)CC1	°C	11.3
CN(C)CCNC(=O)c1ccc(/C=C/c2nc3cc(N4CCN(C)CC4)c(F)cc3c(=O)n2-c2ccccc2)cc1	°C	15.1

[I] CCN(CC)CCNC(=O)c1ccc(/C=C/c2nc3cc(N4CCN(C)CC4)c(F)cc3c(=O)n2-c2ccccc2)cc1
[II] CN1CCN(c2cc3nc(/C=C/c4ccc(NC(=O)CN5CCCC5)cc4)n(-c4ccccc4)c(=O)c3cc2F)CC1
[III] CN1CCN(c2cc3nc(/C=C/c4ccc(NC(=O)CN5CCCCC5)cc4)n(-c4ccccc4)c(=O)c3cc2F)CC1
Place the items in sequence of falling ΔTm. Provide the labels, sequenced as the question asks. I, II, III
(I: 13.4 °C, II: 6.4 °C, III: 4.2 °C)
